The origin of these recorded values is patent US11612599B2.

Measured IC50 accompanies every entry in the list below.
target: Human O-GlcNAcase (His-Tagged hOGA) (Homo sapiens (Human)); assay: Human O-GlcNAcase enzyme inhibition assay; assay type: biochemical; details: OGA enzyme inhibition assay; activity range classes defined in μM
Sequence (O60502 whole entry): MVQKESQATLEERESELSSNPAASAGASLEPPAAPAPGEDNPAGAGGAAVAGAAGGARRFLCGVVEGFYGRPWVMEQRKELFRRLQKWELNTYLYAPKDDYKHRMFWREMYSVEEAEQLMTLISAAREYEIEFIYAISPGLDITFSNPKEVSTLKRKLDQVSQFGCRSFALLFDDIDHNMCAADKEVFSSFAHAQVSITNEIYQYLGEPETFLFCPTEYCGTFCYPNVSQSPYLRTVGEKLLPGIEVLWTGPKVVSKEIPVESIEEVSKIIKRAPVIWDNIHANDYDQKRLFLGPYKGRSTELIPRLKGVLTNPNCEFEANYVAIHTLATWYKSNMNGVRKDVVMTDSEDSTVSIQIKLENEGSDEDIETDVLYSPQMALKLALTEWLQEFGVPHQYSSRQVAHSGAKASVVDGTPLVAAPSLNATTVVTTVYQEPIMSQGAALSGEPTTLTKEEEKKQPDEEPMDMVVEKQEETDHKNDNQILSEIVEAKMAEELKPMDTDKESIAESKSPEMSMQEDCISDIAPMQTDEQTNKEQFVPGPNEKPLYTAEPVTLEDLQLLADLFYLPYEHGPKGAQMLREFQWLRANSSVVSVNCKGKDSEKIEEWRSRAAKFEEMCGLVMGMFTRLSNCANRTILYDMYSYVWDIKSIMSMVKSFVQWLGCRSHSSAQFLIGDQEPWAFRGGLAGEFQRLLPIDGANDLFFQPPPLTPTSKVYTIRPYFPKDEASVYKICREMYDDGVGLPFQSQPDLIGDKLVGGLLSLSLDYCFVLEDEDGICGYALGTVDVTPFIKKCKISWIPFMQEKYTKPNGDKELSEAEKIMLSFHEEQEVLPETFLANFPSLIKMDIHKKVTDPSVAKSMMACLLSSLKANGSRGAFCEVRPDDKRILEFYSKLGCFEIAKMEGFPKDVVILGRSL

Quick one: IC50 of Cc1ncc2ccc(N3CCN(C(C)c4ccc5c(c4)OCC5)CC3)cn12 (racemic) ? < 0.05 µM

Quick one: IC50 of CC(c1ccc2nccnc2c1)N1CCN(c2ccc3c(c2)C(=O)NC3)CC1 (racemic) ? 0.05 to 0.2 µM

Quick one: IC50 of C[C@H](c1ccc2c(c1)OCC2)N1CCN(c2nc3c(s2)CNCC3)CC1 (single isomer, unassigned) ? 1 to 10 µM

Quick one: IC50 of CC(c1ccc2c(c1)OCC2)N1CCN(c2nc3c(s2)C(=O)NCC3)CC1 (racemic) ? < 0.05 µM

Quick one: IC50 of CC(c1ccc2c(c1)OCC2)N1CCN(c2ccc3c(c2)C(=O)NC3)CC1 (racemic) ? < 0.05 µM

Quick one: IC50 of CC(c1ccc2c(c1)OCC2)N1CCN(c2cc3c(cn2)NC(=O)CO3)CC1 (racemic) ? < 0.05 µM
